tested on: chickens; assay: Plasma thromboxane B2 and platelet factor 4 in chickens fed supplemented diets; assay type: in vivo, chicken; settings: control diet + 50 ppm, 4 weeks
PROPERTY: Thromboxane B2 (pg/mL)
Response body: numeric value in pg/mL, unit text excluded.

Asked: Sample CC(C)=CCC/C(C)=C/CC/C(C)=C/CC[C@]1(C)CCc2c(C)c(O)c(C)c(C)c2O1 — what was its Thromboxane B2?
Given back: 21.63

Asked: Again, but for CC(C)=CCC/C(C)=C/CC/C(C)=C/CCC1(C)CCc2cc(O)c(C)c(C)c2O1 (centres unmarked) [γ-T3, γ-tocotrienol, reference compound]
Given back: 19.22

Asked: Again, but for CC(C)=CCC/C(C)=C/CC/C(C)=C/CCC1(C)CCc2cc(O)ccc2O1 (centres unmarked)
Given back: 16.74

Asked: Again, but for CC(C)=CCC/C(C)=C/CC/C(C)=C/CCC1CCc2cc(O)ccc2O1 (centres unmarked)
Given back: 16.42

Asked: Again, but for CC(C)=CCC/C(C)=C/CC/C(C)=C/CCC1(C)CCc2cc(O)cc(C)c2O1 (centres unmarked)
Given back: 18.65

###

tested on: chickens; assay: Serum cholesterol, apolipoproteins, triglycerides and glucose in chickens fed supplemented diets; assay type: in vivo, chicken; conditions: control diet + 50 ppm, 4 weeks
PROPERTY: LDL-Cholesterol in serum
Respond with the figure and its unit, in that order.

Asked: Sample CC(C)=CCC/C(C)=C/CC/C(C)=C/CCC1(C)CCc2cc(O)cc(C)c2O1 (centres unmarked) — what was its LDL-Cholesterol in serum?
Given back: 36.14 ± 0.97 mg/dL

Asked: Again, but for CC(C)=CCC/C(C)=C/CC/C(C)=C/CCC1(C)CCc2cc(O)ccc2O1 (centres unmarked)
Given back: 22.16 ± 0.57 mg/dL

Asked: Again, but for CC(C)=CCC/C(C)=C/CC/C(C)=C/CC[C@]1(C)CCc2c(C)c(O)c(C)c(C)c2O1
Given back: 47.97 ± 0.56 mg/dL

Asked: Again, but for CC(C)=CCC/C(C)=C/CC/C(C)=C/CCC1CCc2cc(O)ccc2O1 (centres unmarked)
Given back: 23.00 ± 1.27 mg/dL

Asked: Again, but for CC(C)=CCC/C(C)=C/CC/C(C)=C/CCC1(C)CCc2cc(O)c(C)c(C)c2O1 (centres unmarked) [γ-T3, γ-tocotrienol, reference compound]
Given back: 37.52 ± 0.81 mg/dL

###

Provide the recorded APO A1, percentage of control for the entries that follow.
Tested on: chickens
Assay: Serum cholesterol, apolipoproteins, triglycerides and glucose in chickens fed supplemented diets
Type: in vivo, chicken
Conditions: control diet + 50 ppm, 4 weeks
Description: All assays conducted on chicken or swine serum were done following the protocols described in A. A. Qureshi et al., "Lowering Of Serum Cholesterol In Hypercholesterolemic Humans By Tocotrienols" (Palmvitee), Am. J. Clin. Nutr., 53, pp. 1021S-26S (1991). […] Plasma insulin, glucagon and TNF levels were measured using radioinnumoassay kits from Ventrex Laboratories, Inc. (Portland, Me.), ICN Biomedicals, Inc. (Costa Mesa, Calif.) and Genzyme Corp. (Cambridge, Mass.), respectively. […]
Response body: numeric value in %, unit text excluded.

Asked: Sample CC(C)=CCC/C(C)=C/CC/C(C)=C/CCC1CCc2cc(O)ccc2O1 (centres unmarked) — what was its APO A1, percentage of control?
Given back: 98.78

Asked: Again, but for CC(C)=CCC/C(C)=C/CC/C(C)=C/CCC1(C)CCc2cc(O)ccc2O1 (centres unmarked)
Given back: 98.79

Asked: Again, but for CC(C)=CCC/C(C)=C/CC/C(C)=C/CCC1(C)CCc2cc(O)c(C)c(C)c2O1 (centres unmarked) [γ-T3, γ-tocotrienol, reference compound]
Given back: 99.57

Asked: Again, but for CC(C)=CCC/C(C)=C/CC/C(C)=C/CCC1(C)CCc2cc(O)cc(C)c2O1 (centres unmarked)
Given back: 99.22

Asked: Again, but for CC(C)=CCC/C(C)=C/CC/C(C)=C/CC[C@]1(C)CCc2c(C)c(O)c(C)c(C)c2O1
Given back: 99.43
